Cited source: ChEMBL document CHEMBL3407388

Consider the following compounds and their measured GI50 readings.
assayName: Cytotoxicity against human Hs578T cells assessed as growth inhibition after 48 hrs by SRB assay
Type: functional
conditionNotes: Hs-578T
endpointLabel: GI50 (µM)

- smilesData: "COc1ccc(/C(C#N)=C/c2cc3ccccc3[nH]2)cc1OC"
  comparativeSign: "="
  measuredResult: 0.133
- smilesData: "COc1cc(/C(C#N)=C/c2cc3ccccc3n2Cc2ccc(C#N)cc2)cc(OC)c1OC"
  comparativeSign: "="
  measuredResult: 0.092
- smilesData: "COc1ccc(/C(C#N)=C/c2cc3ccccc3o2)cc1OC"
  comparativeSign: "="
  measuredResult: 1.88
- smilesData: "COc1ccc2[nH]cc(/C=C(\\C#N)c3cc(OC)c(OC)c(OC)c3)c2c1"
  comparativeSign: "="
  measuredResult: 0.124
- smilesData: "COc1cc(/C(C#N)=C/c2cc3ccccc3[nH]2)cc(OC)c1OC"
  comparativeSign: "<"
  measuredResult: 0.01
- smilesData: "COc1cc(OC)cc(/C(C#N)=C/c2c[nH]c3ccccc23)c1"
  comparativeSign: "="
  measuredResult: 0.611
- smilesData: "COc1cc(/C(C#N)=C/c2coc3ccccc23)cc(OC)c1OC"
  comparativeSign: "="
  measuredResult: 2.03
- smilesData: "COc1cc(/C(C#N)=C/c2c[nH]c3ccccc23)cc(OC)c1OC"
  comparativeSign: "="
  measuredResult: 0.131
- smilesData: "COc1cc(/C(C#N)=C/c2nc3ccccc3s2)cc(OC)c1OC"
  comparativeSign: "="
  measuredResult: 1.29
- smilesData: "COc1cc(/C(C#N)=C/c2cc3ccccc3o2)cc(OC)c1OC"
  comparativeSign: "<"
  measuredResult: 0.01
- smilesData: "COc1cc(OC)cc(/C(C#N)=C/c2nc3ccccc3s2)c1"
  comparativeSign: "="
  measuredResult: 2.01
- smilesData: "COc1ccc(/C(C#N)=C/c2c[nH]c3ccccc23)cc1OC"
  comparativeSign: "="
  measuredResult: 12.9
